test system: Brain; test: Biodistribution in ddY mouse brain at 0.2 to 0.4 uCi, iv after 10 mins; assay type: ADME, organism-based; conditions: in vivo
assay.metric: Drug uptake (% ID/g)

Note to self: Drug uptake recorded for CNc1ccc(-c2cc3cc([125I])ccc3[nH]2)cc1 was 1.68

Note to self: Drug uptake recorded for COc1ccc(-c2cc3cc([125I])ccc3[nH]2)cc1 was 2.07

(I) CN(C)c1ccc(-c2cc3cc([125I])ccc3[nH]2)cc1
(II) OCCOc1ccc(-c2cc3cc([125I])ccc3[nH]2)cc1
Challenge: Please state the entry with greater Drug uptake among I and II . // output: label of the selected item
Response given: II
(II: 2.62 % ID/g, I: 1.19 % ID/g)

---

tested on: Heart; assay: Biodistribution in ddY mouse heart at 0.2 to 0.4 uCi, iv after 2 mins; assay type: ADME, organism-based; conditions: in vivo
assay.metric: Drug uptake (% ID/g)

Illustrative cases are given below, each with its answer.
Note to self: Drug uptake recorded for CN(C)c1ccc(-c2cc3cc([125I])ccc3[nH]2)cc1 was 8.08

Note to self: Drug uptake recorded for COc1ccc(-c2cc3cc([125I])ccc3[nH]2)cc1 was 7.72

(A) CNc1ccc(-c2cc3cc([125I])ccc3[nH]2)cc1
(B) OCCOc1ccc(-c2cc3cc([125I])ccc3[nH]2)cc1
Challenge: Compare Drug uptake: is it lower for A or for B ? // output: label of the selected item
Response given: A

---

tested on: Pancreas; experiment: Biodistribution in ddY mouse pancreas at 0.2 to 0.4 uCi, iv after 30 mins; format: ADME, organism-based; conditions: in vivo, 0.5 h
assay.metric: Drug uptake (% ID/g)

Illustrative cases are given below, each with its answer.
Note to self: Drug uptake recorded for CNc1ccc(-c2cc3cc([125I])ccc3[nH]2)cc1 was 2.12

Note to self: Drug uptake recorded for CN(C)c1ccc(-c2cc3cc([125I])ccc3[nH]2)cc1 was 3.1

(A) COc1ccc(-c2cc3cc([125I])ccc3[nH]2)cc1
(B) OCCOc1ccc(-c2cc3cc([125I])ccc3[nH]2)cc1
Challenge: Compare Drug uptake: is it lower for A or for B ? // output: label of the selected item
Response given: A

---

tested on: Intestine; assay: Biodistribution in ddY mouse intestine at 0.2 to 0.4 uCi, iv after 30 mins; format: ADME, organism-based; conditions: in vivo, 0.5 h
assay.metric: Drug uptake (% ID/g)

(P) COc1ccc(-c2cc3cc([125I])ccc3[nH]2)cc1
(Q) CNc1ccc(-c2cc3cc([125I])ccc3[nH]2)cc1
Challenge: Please state the entry with greater Drug uptake among P and Q . // output: label of the selected item
Response given: P
(P: 12.32 % ID/g, Q: 8.54 % ID/g)

(1) CN(C)c1ccc(-c2cc3cc([125I])ccc3[nH]2)cc1
(2) OCCOc1ccc(-c2cc3cc([125I])ccc3[nH]2)cc1
Challenge: Please state the entry with greater Drug uptake among 1 and 2 . // output: label of the selected item
Response given: 2

---

tested on: Intestine; experiment: Biodistribution in ddY mouse intestine at 0.2 to 0.4 uCi, iv after 60 mins; assay type: ADME, organism-based; conditions: in vivo, 1 h
assay.metric: Drug uptake (% ID/g)

(I) COc1ccc(-c2cc3cc([125I])ccc3[nH]2)cc1
(II) CNc1ccc(-c2cc3cc([125I])ccc3[nH]2)cc1
(III) CN(C)c1ccc(-c2cc3cc([125I])ccc3[nH]2)cc1
Challenge: Sort the list above on Drug uptake in ascending fashion. Kindly provide the labels arranged according to the requested ordering.
Response given: III, II, I
(III: 6.08 % ID/g, II: 9.48 % ID/g, I: 20.35 % ID/g)

---

tested on: Liver; assay: Biodistribution in ddY mouse liver at 0.2 to 0.4 uCi, iv after 60 mins; type: ADME, organism-based; settings: in vivo, 1 h
assay.metric: Drug uptake (% ID/g)

Illustrative cases are given below, each with its answer.
Note to self: Drug uptake recorded for CNc1ccc(-c2cc3cc([125I])ccc3[nH]2)cc1 was 15.89

Note to self: Drug uptake recorded for COc1ccc(-c2cc3cc([125I])ccc3[nH]2)cc1 was 8.22

(a) OCCOc1ccc(-c2cc3cc([125I])ccc3[nH]2)cc1
(b) CN(C)c1ccc(-c2cc3cc([125I])ccc3[nH]2)cc1
Challenge: Compare Drug uptake: is it lower for a or for b ? // output: label of the selected item
Response given: b
(b: 3.24 % ID/g, a: 8.17 % ID/g)

---

test system: Heart; assay: Biodistribution in ddY mouse heart at 0.2 to 0.4 uCi, iv after 30 mins; format: ADME, organism-based; conditions: in vivo, 0.5 h
assay.metric: Drug uptake (% ID/g)

Illustrative cases are given below, each with its answer.
Note to self: Drug uptake recorded for COc1ccc(-c2cc3cc([125I])ccc3[nH]2)cc1 was 1.47

Note to self: Drug uptake recorded for CNc1ccc(-c2cc3cc([125I])ccc3[nH]2)cc1 was 2.96

(I) CN(C)c1ccc(-c2cc3cc([125I])ccc3[nH]2)cc1
(II) OCCOc1ccc(-c2cc3cc([125I])ccc3[nH]2)cc1
Challenge: Please state the entry with greater Drug uptake among I and II . // output: label of the selected item
Response given: II
(II: 2.97 % ID/g, I: 1.87 % ID/g)

---

test system: Spleen; experiment: Biodistribution in ddY mouse spleen at 0.2 to 0.4 uCi, iv after 60 mins; assay type: ADME, organism-based; conditions: in vivo, 1 h
assay.metric: Drug uptake (% ID/g)

Illustrative cases are given below, each with its answer.
Note to self: Drug uptake recorded for CN(C)c1ccc(-c2cc3cc([125I])ccc3[nH]2)cc1 was 2.24

Note to self: Drug uptake recorded for OCCOc1ccc(-c2cc3cc([125I])ccc3[nH]2)cc1 was 2.39

(A) COc1ccc(-c2cc3cc([125I])ccc3[nH]2)cc1
(B) CNc1ccc(-c2cc3cc([125I])ccc3[nH]2)cc1
Challenge: Compare Drug uptake: is it lower for A or for B ? // output: label of the selected item
Response given: A

---

test system: Brain; assay: Biodistribution in ddY mouse brain at 0.2 to 0.4 uCi, iv after 30 mins; type: ADME, organism-based; details: in vivo, 0.5 h
assay.metric: Drug uptake (% ID/g)

Illustrative cases are given below, each with its answer.
Note to self: Drug uptake recorded for COc1ccc(-c2cc3cc([125I])ccc3[nH]2)cc1 was 1.36

Note to self: Drug uptake recorded for OCCOc1ccc(-c2cc3cc([125I])ccc3[nH]2)cc1 was 1.93

(1) CNc1ccc(-c2cc3cc([125I])ccc3[nH]2)cc1
(2) CN(C)c1ccc(-c2cc3cc([125I])ccc3[nH]2)cc1
Challenge: Compare Drug uptake: is it lower for 1 or for 2 ? // output: label of the selected item
Response given: 2
(2: 0.96 % ID/g, 1: 1.42 % ID/g)

---

test system: Spleen; test: Biodistribution in ddY mouse spleen at 0.2 to 0.4 uCi, iv after 10 mins; format: ADME, organism-based; settings: in vivo
assay.metric: Drug uptake (% ID/g)

(1) COc1ccc(-c2cc3cc([125I])ccc3[nH]2)cc1
(2) CNc1ccc(-c2cc3cc([125I])ccc3[nH]2)cc1
Challenge: Please state the entry with greater Drug uptake among 1 and 2 . // output: label of the selected item
Response given: 2

(I) CN(C)c1ccc(-c2cc3cc([125I])ccc3[nH]2)cc1
(II) OCCOc1ccc(-c2cc3cc([125I])ccc3[nH]2)cc1
Challenge: Please state the entry with greater Drug uptake among I and II . // output: label of the selected item
Response given: II
(II: 7.09 % ID/g, I: 3.28 % ID/g)

---

system: Heart; assay: Biodistribution in ddY mouse heart at 0.2 to 0.4 uCi, iv after 10 mins; format: ADME, organism-based; conditions: in vivo
assay.metric: Drug uptake (% ID/g)

Illustrative cases are given below, each with its answer.
Note to self: Drug uptake recorded for CN(C)c1ccc(-c2cc3cc([125I])ccc3[nH]2)cc1 was 4.82

Note to self: Drug uptake recorded for COc1ccc(-c2cc3cc([125I])ccc3[nH]2)cc1 was 2.97

(I) CNc1ccc(-c2cc3cc([125I])ccc3[nH]2)cc1
(II) OCCOc1ccc(-c2cc3cc([125I])ccc3[nH]2)cc1
Challenge: Compare Drug uptake: is it lower for I or for II ? // output: label of the selected item
Response given: I
(I: 3.59 % ID/g, II: 5.84 % ID/g)

---

tested on: Blood; test: Biodistribution in ddY mouse blood at 0.2 to 0.4 uCi, iv after 60 mins; type: ADME, organism-based; settings: in vivo, 1 h
assay.metric: Drug uptake (% ID/g)

(I) OCCOc1ccc(-c2cc3cc([125I])ccc3[nH]2)cc1
(II) CN(C)c1ccc(-c2cc3cc([125I])ccc3[nH]2)cc1
Challenge: Compare Drug uptake: is it lower for I or for II ? // output: label of the selected item
Response given: I

Where do these numbers come from? They come from ChEMBL document CHEMBL1177647.
